Assay: amyloid nucleation score (Sup35N fusion, yeast selection) (log enrichment); library NNK2; higher = more nucleation; inactive = no reads after selection;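 further: zero at mode of non-aggregating sequences after 7 days selection at 30°C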
recordedEndpoint: amyloid nucleation score

LWLADDSATRV : 0.814
RVLREKCSIGVAGKYSY : -0.512
RRYMSVDSK : inactive
HLFYCRSIGDILRSFGETPT : inactive
MSRPSSYS : inactive

For every listed record, write down its amyloid nucleation score.
1. HVSNSFKSFCN
2. NLDGIVRMTN
3. IVCTYFHSTPSCYRLASNWY
4. CFLMNKVT
5. EGTRIDLVKRRVNLWCI
6. NLIKNSAMLSSTRPIYHHSI
7. YVSHLMFKVSGLPWLGRCNY

A:
1: 1.52; 2: -0.543; 3: 0.284; 4: -1.5; 5: -0.296; 6: -1.27; 7: 4.78

For every listed record, write down its amyloid nucleation score.
1. LTKVWLPCAFVVSSFDQYQH
2. NYFVYNFLVV
3. CMRGLVKAGMIMTVFDRLSY
4. MSCTRDSLCLNFLVILFTTQ
5. GVQETSYVALCSSLVTRTFV
6. GPIYLWFSFKSRCQSSCHDV

A:
1. 0.764
2. 4.95
3. -1.22
4. 3.03
5. 1.16
6. -0.866

---

Experiment: amyloid nucleation score (Sup35N fusion, yeast selection) (log enrichment); library NNK1; higher = more nucleation; inactive = no reads after selection
# amyloid nucleation score >= 0.3 gives Satisfied, anything below gives Not satisfied

IASSSTRFLYV : Satisfied
CIKNSLRRYMCAYFSWGRRG : Not satisfied
AYFRGRVNFSLTFLAYT : Not satisfied
TNILVAYRVISNGSTTPPRR : Satisfied

Q: Tell me whether amyloid nucleation score is at least 0.3 here: "TEINIASPYWNNSRSGSDMD"
A: Not satisfied

Q: Tell me whether amyloid nucleation score is at least 0.3 here: "RCRYVRLETSLC"
A: Not satisfied

Q: Tell me whether amyloid nucleation score is at least 0.3 here: "LLNYGLRFCLVTARSELTYM"
A: Satisfied

---

Experiment: amyloid nucleation score (Sup35N fusion, yeast selection) (log enrichment); library NNK2; higher = more nucleation; inactive = no reads after selection
recordedEndpoint: amyloid nucleation score
One number for each entry.

In the examples that follow, each entry is paired with its recorded amyloid nucleation score.
FFCSSRPDE : -0.286
GSVTTCSAWYKRRNLDICHR : -0.277

For every listed record, write down its amyloid nucleation score.
1. TWHKFVSCDCGLH
2. GYGDGILVSFSC
3. IYFWDTLTFLLSCLHAAGEN
4. ICQCRSLRGRAYQVLGVNKS

A:
1: 0.677; 2: -0.986; 3: -1.87; 4: 0.731

For every listed record, write down its amyloid nucleation score.
1. AYTMQLNHRLVLSVSS
2. IIGGTYIWVCVRGPTGRFDG

A:
0.219
9.37

---

Experiment: amyloid nucleation score (Sup35N fusion, yeast selection) (log enrichment); library NNK1; higher = more nucleation; inactive = no reads after selection
# amyloid nucleation score >= -0.09 gives condition met, anything below gives condition not met

Q: Tell me whether amyloid nucleation score is at least -0.09 here: "IGSRIKA"
A: condition met

Q: Tell me whether amyloid nucleation score is at least -0.09 here: "DAILLHYSNDMLYSYYRRVG"
A: condition not met

Q: Tell me whether amyloid nucleation score is at least -0.09 here: "YRIPLARMWMVTLPL"
A: condition not met

Q: Tell me whether amyloid nucleation score is at least -0.09 here: "TGFVWWLFGCGWTLVDRMWF"
A: condition not met

Q: Tell me whether amyloid nucleation score is at least -0.09 here: "SATNCRTGKDCRERGHTLGL"
A: condition met

Q: Tell me whether amyloid nucleation score is at least -0.09 here: "PIDGLPGASFGLGFQCGVGM"
A: condition met
